Reference source: PubChem BioAssay

# METHOD_NOTES: small-molecule microarray binders of probe aEGFR, primary screen, biochemical, biotinylated probe, 635/667 nm fluorescence (AID 1097);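 note: probe is a biotinylated anti-EGFR antibody binding compounds printed on slides; score combines fluorescence near 667 nm and signal to noise of each spot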
# TEST_PARAMETERS: higher = more signal
EXPERIMENTAL_READOUT: composite z-score
One number for each entry.

Worked cases, composite z-score given:
CCOC(=O)C1=C[C@@H](C(C)(C)C)N(S(=O)(=O)c2ccc(C)cc2)[C@H]1c1cccc(Cl)c1
0.301
C=C(CCCC)C(=O)CC[C@H](OC(C)=O)c1ccc(OCCO)cc1
-0.16

Quick batch: composite z-score for everything below.
1. Cc1ccccc1C(O)C1C=CC2C(=O)NC(=O)C2N1Nc1ccc(Cl)cc1Cl (stereo unspecified)
2. COc1cc(NN2C(C(O)c3ccc(I)cc3)C=CC3C(=O)N(c4ccccc4)C(=O)C32)cc(OC)c1OC (stereo unspecified)
3. C=CCN1C(=O)[C@]2(O[C@H](CCO)[C@@H]([Si](C)(C)c3ccc(OC)cc3)[C@@H]2C)c2cc(N3C(=O)COc4ccccc43)ccc21
4. COCC(=C=CC[C@@H](O)c1cccc(OCCO)c1)CCO

1: -0.125; 2: -0.0423; 3: -0.12; 4: 0.102

Quick batch: composite z-score for everything below.
1. COCCCNC(=O)[C@@]1(Sc2ccc(C)cc2)CC(=O)N(Cc2ccccc2Cl)[C@@H]1c1ccc(CO)cc1I
2. C=CCC(OC(C)=O)[C@@H]1[C@@H](N(Cc2ccc(-c3cccc(C(F)(F)F)c3)o2)C(=O)c2ccc(C)cc2)c2cc(OCCCO)ccc2N1C(=O)Cc1ccc(OC)cc1 (stereo partly specified)
3. C[C@]1(C(=O)NCC(F)(F)F)c2ccccc2C(=O)N(Cc2ccccc2)[C@H]1c1ccc(CO)cc1
4. CCOC(=O)C=Cc1ccccc1O
5. COC(=O)[C@@]1(Cc2ccc(F)cc2)[C@H]2c3cc(C(=O)N(C)C)n(Cc4ccc(O)c(OC)c4)c3C[C@H]2CN1C(=O)c1ccccc1
6. Nc1cc(Br)ccc1C(=O)O

-0.249
-0.0828
-0.162
0.0594
0.0977
-0.0961

Quick batch: composite z-score for everything below.
1. COc1ccc([Si](C)(C)[C@@H]2[C@@H](CC(=O)N3Cc4ccccc4C[C@H]3CO)O[C@]3(C(=O)N(c4ccccc4)c4ccccc43)[C@H]2C)cc1
2. O=C(O)[C@@H]1C[C@@H]2C(=O)N3CCC[C@H]3C(=O)N2[C@@H]1c1cccc(OCCO)c1
3. [N-]=[N+]=Nc1ccccc1C[C@]1(C(=O)O)N=C(c2ccc(OCCCO)cc2)O[C@H]1c1ccccc1
4. COC(=O)C(CC#Cc1ccc2c(c1)[C@]1(C(=O)N2)[C@H](C(=O)Nc2nc3ccccc3s2)[C@H]2C(=O)O[C@H](c3ccccc3)[C@H](c3ccccc3)N2[C@@H]1c1ccc(OCCO)cc1)C(=O)OC

0.13
1.27
-0.0828
0.0766

* * *

# System: Wnt5a (protein binding on small-molecule microarray)
# METHOD_NOTES: Wnt5a binders on small-molecule microarray, primary screen, biophysical, 635/667 nm fluorescence (AID 1142);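 note: fluorescence read at 667 nm with signal to noise per printed feature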
# TEST_PARAMETERS: 635 nm fluorescence, higher = more signal
Give composite z-score for every item shown.

C=C[C@H](C)[C@H](OC(=O)Nc1ccc(OC)cc1)c1ccc(OCCO)cc1
-0.423
COC(=O)[C@@]1(Cc2ccccc2CN=[N+]=[N-])N=C(c2ccc(OCCCO)cc2)O[C@H]1c1ccccc1
0.337
CC(C)C(=C=CC[C@@H](O)c1cccc(OCCO)c1)C[C@@H](O)COCc1ccccc1
0.139

Sample COC(=O)[C@@]1(Cc2ccc(OC)cc2)[C@H]2c3cc(C(=O)N4CCCC4)n(Cc4ccc(S(C)(=O)=O)cc4)c3C[C@H]2CN1C(=O)c1ccccc1 — what was its composite z-score? 0.21

* * *

# METHOD_NOTES: small-molecule microarray binders of probe aWnt5a, primary screen, biochemical, biotinylated probe, 635/667 nm fluorescence (AID 1113);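 note: score merges 667 nm fluorescence intensity with signal-to-noise per printed feature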
# TEST_PARAMETERS: higher = more signal
Entries are sorted into classes by composite z-score as follows: low group = under -0.1, middle group = from -0.1 up to 0.004, high group = 0.004 and over

Reference set, count: 3
O=C1OCCC/C=C\[C@H]2OC34C=CCN(c5ccc6ccccc6c5)C(=O)[C@H]3N(CCCO)C(=O)[C@@H]4C12 (stereo partly drawn)
low group
COc1cc(NN2C(C(O)C3CCCCC3)C=CC3C(=O)N(C)C(=O)C32)cc(OC)c1OC (stereo not drawn)
high group
COC(=O)[C@@]1(Cc2ccccc2)[C@H]2c3cc(C(=O)N(C)C)n(CCn4cc([N+](=O)[O-])nc4C)c3C[C@H]2CN1C(=O)c1ccccc1
high group

Bin? C=CCC(OC(C)=O)[C@@H]1[C@@H](N(Cc2cccc3ccccc23)C(=O)c2ccc(-c3ccccc3)cc2)c2cc(OCCCO)ccc2N1C(=O)c1ccc(-c2ccccc2)cc1 (stereo partly drawn) middle group

Bin? CC(C)C[C@@H]1NC(=O)CNC(=O)[C@@]23C(=O)N[C@@H](Cc4ccccc4)C2[C@H](C)[C@@]2(C)O[C@H]2C3/C=C/C/C=C\CNC1=O (stereo partly drawn) low group

Bin? C=C(CCCC)C(=O)CC[C@H](OC(=O)c1ccccc1-c1ccccc1C(=O)O)c1ccccc1OCCO middle group

* * *

Give composite z-score for every item shown.
# STUDY_SYSTEM: Follistatin-related protein 3 (Homo sapiens) (UniProt O95633)
# Sequence (O95633 whole entry, looked up): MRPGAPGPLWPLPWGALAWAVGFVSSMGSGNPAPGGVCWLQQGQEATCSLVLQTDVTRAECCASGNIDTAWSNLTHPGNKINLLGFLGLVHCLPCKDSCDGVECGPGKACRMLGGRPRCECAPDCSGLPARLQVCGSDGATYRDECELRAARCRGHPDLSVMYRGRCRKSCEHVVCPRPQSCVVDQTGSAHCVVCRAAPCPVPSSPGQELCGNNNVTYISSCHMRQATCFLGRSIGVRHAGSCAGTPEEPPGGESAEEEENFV
# METHOD_NOTES: FSTL3 binders on small-molecule microarrays, primary screen, biochemical, small-molecule microarray, 635 nm fluorescence (AID 1105);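 note: score merges emission near 667 nm and signal to noise per printed spot across three slides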
# TEST_PARAMETERS: FSTL3 binding, higher = more signal
Answers are plain numbers.

Worked cases, composite z-score given:
CCN(CC)c1ccc(N2CC=CC34O[C@@H]5/C=C\CCC(C)OC(=O)C5[C@H]3C(=O)N(C(C)CO)[C@@H]4C2=O)cc1 (stereo partly drawn)
-0.159
COc1cc2c(cc1O)C(c1ccc(CN3CCCC3)cc1)N(C)CC2 (stereo not drawn)
-0.567
CN(C)CCCCCCNC(=O)[C@@H]1C[C@@H]2C(=O)N[C@@H](CCCCN)C(=O)N2[C@@H]1c1ccc(O)cc1
1.64

Quick batch: composite z-score for everything below.
1. Cc1ccccc1C(O)C1C=CC2C(=O)N(c3ccccc3)C(=O)C2N1Nc1ccc([N+](=O)[O-])cc1 (stereo not drawn)
2. CO[C@H]1O[C@H](CO)[C@@H](OC(=O)Nc2cccc(F)c2)[C@H](OC(=O)Nc2ccccc2-c2ccccc2)[C@H]1OC(=O)Nc1ccccc1-c1ccccc1
3. Cc1ccc(S[C@]2(C(=O)NCc3ccccc3)CC(=O)N(Cc3cc(C(F)(F)F)cc(C(F)(F)F)c3)[C@@H]2c2ccc(CO)cc2I)cc1
4. C=C(/C(=C/C[C@@H](OC(=O)c1ccncc1)c1cccc(OCCO)c1)c1cnc2ccccc2c1)C(C)C

1. 1.19
2. 1.3
3. -0.203
4. 1.51

Sample COc1cc(NN2C(C(O)C3CCCCC3)C=CC3C(=O)N(c4ccccc4)C(=O)C32)cc(OC)c1OC (stereo not drawn) — what was its composite z-score? 0.722

* * *

# STUDY_SYSTEM: Focal adhesion kinase 1 (Homo sapiens) (UniProt Q05397)
# Sequence (Q05397 whole entry, looked up): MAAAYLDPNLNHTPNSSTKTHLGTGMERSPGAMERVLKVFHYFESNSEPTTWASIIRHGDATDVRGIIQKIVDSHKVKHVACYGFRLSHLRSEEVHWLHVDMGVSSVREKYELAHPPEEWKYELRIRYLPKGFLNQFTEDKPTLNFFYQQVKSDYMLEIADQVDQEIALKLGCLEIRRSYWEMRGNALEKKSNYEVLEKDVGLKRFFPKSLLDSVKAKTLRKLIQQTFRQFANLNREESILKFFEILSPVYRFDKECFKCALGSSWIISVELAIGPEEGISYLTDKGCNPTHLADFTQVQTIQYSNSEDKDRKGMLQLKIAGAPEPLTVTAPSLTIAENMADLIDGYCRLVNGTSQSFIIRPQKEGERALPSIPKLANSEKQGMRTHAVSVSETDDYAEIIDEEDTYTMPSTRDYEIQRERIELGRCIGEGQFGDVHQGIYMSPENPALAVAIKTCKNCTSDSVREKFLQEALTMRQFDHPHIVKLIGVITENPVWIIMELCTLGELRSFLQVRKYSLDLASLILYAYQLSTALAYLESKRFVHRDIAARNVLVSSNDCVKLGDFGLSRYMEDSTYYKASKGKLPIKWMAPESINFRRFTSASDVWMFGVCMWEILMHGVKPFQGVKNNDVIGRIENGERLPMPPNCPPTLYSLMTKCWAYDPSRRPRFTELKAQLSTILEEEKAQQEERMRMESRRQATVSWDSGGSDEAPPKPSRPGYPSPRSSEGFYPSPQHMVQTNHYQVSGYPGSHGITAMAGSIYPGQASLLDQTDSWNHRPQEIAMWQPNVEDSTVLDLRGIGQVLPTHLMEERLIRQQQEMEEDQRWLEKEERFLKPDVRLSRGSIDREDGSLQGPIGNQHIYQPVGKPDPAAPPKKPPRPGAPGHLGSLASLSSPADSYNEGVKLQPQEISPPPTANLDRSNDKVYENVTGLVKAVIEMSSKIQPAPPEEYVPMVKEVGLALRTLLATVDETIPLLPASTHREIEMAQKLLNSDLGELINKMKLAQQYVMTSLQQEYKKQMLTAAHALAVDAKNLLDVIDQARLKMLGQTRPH
# METHOD_NOTES: small-molecule microarray binders of FAK, primary screen, biochemical, 635/667 nm fluorescence, BSA, DTT (AID 1130);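 note: composite of spot emission at 667 nm and signal to noise over triplicate slides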
# TEST_PARAMETERS: PTK2 binding, 635 nm fluorescence, higher = more signal
Give composite z-score for every item shown.
Numbers only.

Worked cases, composite z-score given:
COCCOC(=O)N1C(=O)[C@@]2(c3cc(C#CCC(C(=O)OC)C(=O)OC)ccc31)[C@H](C(=O)NC[C@H](O)c1ccccc1)[C@H]1C(=O)O[C@H](c3ccccc3)[C@H](c3ccccc3)N1[C@@H]2c1ccc(O)cc1
0.983
NC(=O)NCC#Cc1ccc2c(c1)[C@]1(C(=O)N2)[C@H](C(=O)N2CCN(c3ncccn3)CC2)[C@H]2C(=O)O[C@H](c3ccccc3)[C@H](c3ccccc3)N2[C@@H]1c1ccc(OCCO)cc1
0.0827
O=C(O)[C@@H]1C[C@@H]2C(=O)N3CCC[C@H]3C(=O)N2[C@@H]1c1cccc(OCCO)c1
2.47

Sample C[C@]1(C(=O)NCC(F)(F)F)c2ccccc2C(=O)N(Cc2ccccc2)[C@H]1c1ccc(CO)cc1 — what was its composite z-score? -0.712

* * *

# STUDY_SYSTEM: Torsin-1A (Homo sapiens)
# METHOD_NOTES: small-molecule binders of mutant TOR1A in lysate, primary screen, cell lysate, small-molecule microarray, COS7 lysate, 635/667 nm fluorescence (AID 1150);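 note: score pools 667 nm emission and signal to noise measuring lysate protein binding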
# TEST_PARAMETERS: COS7 hTOR1A mutant lysate, 635 nm fluorescence, higher = more signal
Give composite z-score for every item shown.
Answers are plain numbers.

Worked cases, composite z-score given:
C=CCNC(=O)[C@H]1[C@@H]2C(=O)O[C@@H](c3ccccc3)[C@@H](c3ccccc3)N2[C@@H](c2ccc(OCCO)cc2)[C@]12C(=O)Nc1ccc(C#CCNC(N)=O)cc12
0.125
O=C1OCCC/C=C\[C@H]2OC34C=CCN(c5ccc6ccccc6c5)C(=O)[C@H]3N(CCCO)C(=O)[C@@H]4C12 (stereo partly drawn)
-1.1

Next item in the queue.
Sample C=CCNC(=O)[C@@H]1[C@H]2C(=O)O[C@H](c3ccccc3)[C@H](c3ccccc3)N2[C@H](c2ccc(O)cc2)[C@@]12C(=O)N(C(=O)OCCOC)c1ccc(C#CCCO)cc12 — what was its composite z-score? 0.235
